# reported Exposure in Bone; entries follow
Tested on: LNCaP tumor bearing mice
Experiment: SPECT/CT scanning, exposure of 177Lu labeled compounds in tumor and tissues
Format: in vivo
Details: labeled with 177Lu; about 7.4 MBq (200 μCi) tail vein; scans 1-72 h

| MOLECULE | Exposure in Bone (h*ID %/g) |
| --- | --- |
| COc1ccc(C(=O)NCCN2CCN(C(=O)CCC(=O)N[C@@H](CCCCNC(=O)CN3CCN(CC(=O)O)CCN(CC(=O)O)CCN(CC(=O)O)CC3)C(=O)NCC3CCC(C(=O)N[C@@H](Cc4ccc5ccccc5c4)C(=O)NCCCC[C@H](NC(=O)N[C@@H](CCC(=O)O)C(=O)O)C(=O)O)CC3)CC2)cc1 (some centres unmarked) | 32.71 |
| O=C(O)CCCCCCCCCCC(=O)N[C@@H](CCCCNC(=O)CN1CCN(CC(=O)O)CCN(CC(=O)O)CCN(CC(=O)O)CC1)C(=O)NCC1CCC(C(=O)N[C@@H](Cc2ccc3ccccc3c2)C(=O)NCCCC[C@H](NC(=O)N[C@@H](CCC(=O)O)C(=O)O)C(=O)O)CC1 (some centres unmarked) | 22.69 |
| O=C(O)CCCCCCCCCCCCC(=O)N[C@@H](CCCCNC(=O)CN1CCN(CC(=O)O)CCN(CC(=O)O)CCN(CC(=O)O)CC1)C(=O)NCC1CCC(C(=O)N[C@@H](Cc2ccc3ccccc3c2)C(=O)NCCCC[C@H](NC(=O)N[C@@H](CCC(=O)O)C(=O)O)C(=O)O)CC1 (some centres unmarked) | 54.86 |
| COc1ccc(CCCC(=O)NC(CCCCN)C(=O)N[C@@H](CCCCNC(=O)CN2CCN(CC(=O)O)CCN(CC(=O)O)CCN(CC(=O)O)CC2)C(=O)NCC2CCC(C(=O)N[C@@H](Cc3ccc4ccccc4c3)C(=O)NCCCC[C@H](NC(=O)N[C@@H](CCC(=O)O)C(=O)O)C(=O)O)CC2)cc1 (some centres unmarked) | 32.01 |
| COc1ccc(CCCC(=O)NC(Cc2c[nH]cn2)C(=O)N[C@@H](CCCCNC(=O)CN2CCN(CC(=O)O)CCN(CC(=O)O)CCN(CC(=O)O)CC2)C(=O)NCC2CCC(C(=O)N[C@@H](Cc3ccc4ccccc4c3)C(=O)NCCCC[C@H](NC(=O)N[C@@H](CCC(=O)O)C(=O)O)C(=O)O)CC2)cc1 (some centres unmarked) | 20.62 |
